FYI, the data here is from PubChem BioAssay.

# protocol description: Nile Red efflux blockade in pump-expressing yeast – validation compound set, multiplex, phenotypic, pilot screen (AID 588506);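 note: Nile Red retained in cells so higher fluorescence means more efflux inhibition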
# conditions: S. cerevisiae pump-expressing triplex, Nile Red efflux flow cytometry; at 10 µM; the pumps come from Candida albicans
The source made the active and inactive calls.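 Rule for the calls: active = efflux inhibition above 0.42, the validation set average plus 4 SD; inconclusive = no clear call, values can overlap the other calls; inactive = the rest.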
Outcome codes: YES = active, NO = inactive

COc1cccc2c(=O)c(C/C=C(/C)Cl)c(C)[nH]c12
NO
CC(=O)SC1CC2=CC(=O)CCC2(C)C2CCC3(C)C(CCC34CCC(=O)O4)C12 (stereo unspecified)
NO
CC1(C)CC(NCc2ccccc2)CCO1 (stereo unspecified)
NO
COc1ccc(-c2cc(=O)oc3cc(OC(C)C(=O)O)ccc23)cc1 (stereo unspecified)
NO
COc1ccc(-n2cc(CNCc3cccnc3)c(-c3cccc(F)c3)n2)cc1
NO
COc1ccccc1NC(=O)Cn1c(C)cc(=O)c2cccc(OC)c21
YES
COc1ccc(-c2c[n+](CC(=O)OC3CC(C)CCC3C(C)C)c3n2CCC3)cc1 (stereo unspecified)
NO
O=C1Cc2ccccc2C(c2ccccc2)N1 (stereo unspecified)
NO
CCCCCC(O)c1cccc(OCc2ccc3ccccc3n2)c1 (stereo unspecified)
NO
Cc1ccc2c(c1C)NC(C(=O)O)C1CC=CC21 (stereo unspecified)
NO
Cn1c(=O)[nH]c2nnc(-c3ccc(Cl)c(Cl)c3)nc2c1=O
NO
Cc1ccccc1NC(=O)C1(C)Cc2ccccc2C(=O)O1 (stereo unspecified)
NO
CC(=O)N1CCn2c3c(c4cc(C)ccc42)CCCC31 (stereo unspecified)
NO
CC1=C(C)C(=O)C(CCCCC#CCCCC#CCO)=C(C)C1=O
NO
COc1cc2c(cc1OC)CN(C(=O)c1ccc(S(=O)(=O)N(C)c3ccccc3)cc1)CC2
NO
Cc1ccc(N2CCN(C(=S)c3ccc(-c4cccc([N+](=O)[O-])c4)o3)CC2)cc1
NO
O=C(CN1CC[n+]2c(-c3cccs3)csc21)c1ccc(Br)cc1
NO
COc1cc(C(=O)OCCn2c(=O)c3c(ncn3CCN(C)C)n(C)c2=O)cc(OC)c1OC
NO
C[N+](C)(C)CCCCCCCCCC[N+](C)(C)C
NO
Cn1c(=O)[nH]c(=O)c2c1nc(NCc1ccco1)n2CCCc1ccccc1
NO
CC1(C#CC[N+]2(C)CCCCC2)CCC2C(O1)c1ccccc1OC2(C)C (stereo unspecified)
NO
COC1CCN(C(=O)c2ccc(OC3CCN(Cc4ccccn4)CC3)cc2)CC1
NO
CC12CC(c3ccccc3O1)C(C(=O)N1CCOCC1)C(=O)N2 (stereo unspecified)
NO
Cc1[nH]c2ccccc2c1C(=O)C(=O)NCc1ccco1
NO
O=C(CCC1CCCN(C(=O)c2ccsc2)C1)NCc1ccc(F)c(F)c1 (stereo unspecified)
NO
O=C(O)/C=C/c1cccc(OCc2ccccc2)c1
NO
